These measurements were taken from PubChem BioAssay AID624138.

- measured-target: Signal transducer and activator of transcription 3 (Homo sapiens)
- measurement-notes: small molecules binding His-tagged STAT3 – biochemical, small molecule microarray, single point, set 2, primary screen (AID 624138)
- conditions: anti-His fluorescence
Screen size: about 17,000 compounds; about 35 (0.2%) were called active. This excerpt belongs to a sample that is enriched for actives.
experimental-endpoint: outcome

// below: answered compounds
Send back Signal transducer and activator of transcription 3 (Homo sapiens) outcome of C[C@H]1CCCCO[C@H](CN(C)C)[C@@H](C)CN([C@@H](C)CO)C(=O)c2cc(NC(=O)CCCN(C)C)ccc2O1 only. inactive

Send back Signal transducer and activator of transcription 3 (Homo sapiens) outcome of C[C@@H]1CCCCO[C@@H](CN(C)C(=O)c2ccccc2)[C@H](C)CN([C@@H](C)CO)C(=O)c2cc(NS(=O)(=O)c3cn(C)cn3)ccc2O1 only. inactive

Send back Signal transducer and activator of transcription 3 (Homo sapiens) outcome of C[C@H](CO)N1C[C@H](C)[C@H](CN(C)S(=O)(=O)c2cn(C)cn2)Oc2ccc(N(C)C)cc2C1=O only. inactive

Send back Signal transducer and activator of transcription 3 (Homo sapiens) outcome of C[C@@H]1CCCCO[C@@H](CN(C)C(=O)NC2CCCCC2)[C@H](C)CN([C@H](C)CO)C(=O)c2cc(NS(=O)(=O)c3ccc(Cl)cc3)ccc2O1 only. inactive

Others:
Send back Signal transducer and activator of transcription 3 (Homo sapiens) outcome of COc1ccc(OC)c(NC(=O)c2cnn(-c3ccccc3Cl)c2NC(=O)c2ccco2)c1 only. inactive

Send back Signal transducer and activator of transcription 3 (Homo sapiens) outcome of Cc1noc(C)c1NC(=O)Nc1cccc2c1O[C@H](CN(C)C(=O)Nc1c(C)noc1C)[C@@H](C)CN([C@@H](C)CO)C2=O only. inactive

Send back Signal transducer and activator of transcription 3 (Homo sapiens) outcome of C[C@H]1CN([C@@H](C)CO)C(=O)c2cc(NC(=O)Cn3cnnn3)ccc2O[C@@H]1CN(C)CC1CCCCC1 only. inactive

Send back Signal transducer and activator of transcription 3 (Homo sapiens) outcome of COc1ccccc1NC(=O)CNC(=O)c1ccc(C)cc1 only. inactive
